- ASSAYED_SYSTEM: Cell division control protein 42 homolog (Homo sapiens) (UniProt P60953)
- Sequence (P60953 whole entry, looked up): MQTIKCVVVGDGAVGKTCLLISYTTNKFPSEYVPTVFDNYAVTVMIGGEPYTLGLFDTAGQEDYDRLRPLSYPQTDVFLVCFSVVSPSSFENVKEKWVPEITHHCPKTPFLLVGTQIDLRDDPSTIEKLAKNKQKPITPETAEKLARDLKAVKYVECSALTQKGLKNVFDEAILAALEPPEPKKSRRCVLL
- ASSAY_NAME: Cdc42 GTP-binding inhibition at fixed GTP, dose response, mechanism study for Ras-family GTPase inhibitor project, biochemical, nucleotide-depleted protein, Mg buffer, constant GTP (AID 2376)
- MEASUREMENT_SETUP: GST-Cdc42 beads, BODIPY-GTP binding, flow cytometry

{"COMPOUND": "COc1ccc(C2CC(c3ccccc3)=NN2c2ccc(S(N)(=O)=O)cc2)cc1 (stereo unspecified)", "ASSAYED_SYSTEM": "Cell division control protein 42 homolog (Homo sapiens) (UniProt P60953)", "EC50": "263 nM"}
